The reported numbers originate from ChEMBL document CHEMBL5325456.

Tested on: MDA-MB-231
Test: Antiproliferative activity against human MDA-MB-231 cells assessed as reduction in cell viability incubated for 48 hrs by CCk-8 assay
Type: functional, cell-based
Details: MDA-MB-231, 48 h

SAMPLE_SMILES: C[C@H]1CCC/C=C/[C@@H]2C[C@H](O)C[C@H]2[C@H](OC(=O)CCC(=O)OCCOc2ccc(-c3cc(=S)ss3)cc2)/C=C/C(=O)O1
IC50: 1.19 µM
--
SAMPLE_SMILES: C[C@H]1CCC/C=C/[C@@H]2C[C@H](OC(=O)CCC(=O)OCCCCCCOc3ccc(-c4cc(=S)ss4)cc3)C[C@H]2[C@H](O)/C=C/C(=O)O1
IC50: > 40 µM
--
SAMPLE_SMILES: C[C@H]1CCC/C=C/[C@@H]2C[C@H](OC(=O)c3ccccc3C(=O)OCCOc3ccc(-c4cc(=S)ss4)cc3)C[C@H]2[C@H](OC(=O)c2ccccc2C(=O)OCCOc2ccc(-c3cc(=S)ss3)cc2)/C=C/C(=O)O1
IC50: > 40 µM
--
SAMPLE_SMILES: C[C@H]1CCC/C=C/[C@@H]2C[C@H](OC(=O)CCC(=O)OCCCCCCOc3ccc(-c4cc(=S)ss4)cc3)C[C@H]2[C@H](OC(=O)CCC(=O)OCCCCCCOc2ccc(-c3cc(=S)ss3)cc2)/C=C/C(=O)O1
IC50: > 40 µM

----------
System: A549
Test: Antiproliferative activity against human A549 cells assessed as reduction in cell viability incubated for 48 hrs by CCk-8 assay
Type: functional, cell-based
Settings: A549, 48 h
OUTCOME_MEASURE: IC50

SAMPLE_SMILES: C[C@H]1CCC/C=C/[C@@H]2C[C@H](OC(=O)c3ccccc3C(=O)OCCCCCCOc3ccc(-c4cc(=S)ss4)cc3)C[C@H]2[C@H](OC(=O)c2ccccc2C(=O)OCCCCCCOc2ccc(-c3cc(=S)ss3)cc2)/C=C/C(=O)O1
TGT: A549
MEASURED_VALUE: > 40 µM
//
SAMPLE_SMILES: CC(=O)O[C@H]1C(=O)[C@@]2(C)[C@H]([C@H](OC(=O)c3ccccc3)[C@]3(O)C[C@H](OC(=O)[C@H](O)[C@@H](NC(=O)c4ccccc4)c4ccccc4)C(C)=C1C3(C)C)[C@]1(OC(C)=O)CO[C@@H]1C[C@@H]2O
TGT: A549
MEASURED_VALUE: 0.014 µM
//
SAMPLE_SMILES: C[C@H]1CCC/C=C/[C@@H]2C[C@H](OC(=O)CCC(=O)OCCCCOc3ccc(-c4cc(=S)ss4)cc3)C[C@H]2[C@H](O)/C=C/C(=O)O1
TGT: A549
MEASURED_VALUE: > 40 µM
//
SAMPLE_SMILES: C[C@H]1CCC/C=C/[C@@H]2C[C@H](O)C[C@H]2[C@H](OC(=O)CCC(=O)OCCOc2ccc(-c3cc(=S)ss3)cc2)/C=C/C(=O)O1
TGT: A549
MEASURED_VALUE: 2.73 µM
//
SAMPLE_SMILES: C[C@H]1CCC/C=C/[C@@H]2C[C@H](OC(=O)CCC(=O)OCCOc3ccc(-c4cc(=S)ss4)cc3)C[C@H]2[C@H](O)/C=C/C(=O)O1
TGT: A549
MEASURED_VALUE: > 40 µM
//
SAMPLE_SMILES: C[C@H]1CCC/C=C/[C@@H]2C[C@H](OC(=O)c3ccccc3C(=O)Oc3ccc(-c4cc(=S)ss4)cc3)C[C@H]2[C@H](OC(=O)c2ccccc2C(=O)Oc2ccc(-c3cc(=S)ss3)cc2)/C=C/C(=O)O1
TGT: A549
MEASURED_VALUE: > 40 µM
//
SAMPLE_SMILES: C[C@H]1CCC/C=C/[C@@H]2C[C@H](O)C[C@H]2[C@H](OC(=O)CCC(=O)OCCCCOc2ccc(-c3cc(=S)ss3)cc2)/C=C/C(=O)O1
TGT: A549
MEASURED_VALUE: 1.46 µM
//
SAMPLE_SMILES: C[C@H]1CCC/C=C/[C@@H]2C[C@H](O)C[C@H]2[C@H](OC(=O)c2ccccc2C(=O)OCCCCCCOc2ccc(-c3cc(=S)ss3)cc2)/C=C/C(=O)O1
TGT: A549
MEASURED_VALUE: > 40 µM
//
SAMPLE_SMILES: C[C@H]1CCC/C=C/[C@@H]2C[C@H](OC(=O)CCC(=O)Oc3ccc(-c4cc(=S)ss4)cc3)C[C@H]2[C@H](OC(=O)CCC(=O)Oc2ccc(-c3cc(=S)ss3)cc2)/C=C/C(=O)O1
TGT: A549
MEASURED_VALUE: > 40 µM
//
SAMPLE_SMILES: C[C@H]1CCC/C=C/[C@@H]2C[C@H](O)C[C@H]2[C@H](OC(=O)c2ccccc2C(=O)OCCCCOc2ccc(-c3cc(=S)ss3)cc2)/C=C/C(=O)O1
TGT: A549
MEASURED_VALUE: > 40 µM
